Sourced from PubChem BioAssay (NCI)

- Test system: U251 CNS
- assay_method_text: NCI tumour cell line growth inhibition, 48 h

>  <compound>
O=c1cccccc1NCCOCCNc1cccccc1=O

>  <TGI>
> 100 µM

$$$$
>  <compound>
Cc1ccc(S(=O)(=O)N2CC3OC(C)(C)OC3C2CO)cc1 (centres undefined)

>  <TGI>
> 100 µM

$$$$
>  <compound>
Cc1nc(Cl)nc(Cl)c1C

>  <TGI>
> 100 µM

$$$$
>  <compound>
COc1cc2c3c(n(CCCCOC(=O)C(F)(F)F)c(=O)c2cc1OC)-c1cc2c(cc1C3=O)OCO2

>  <TGI>
> 100 µM

$$$$
>  <compound>
C/C(=N\NS(=O)(=O)c1ccc(C)cc1)C(CN1CCOCC1)C(c1ccccc1)c1c(O)c2ccccc2oc1=O (centres undefined)

>  <TGI>
> 100 µM

$$$$
>  <compound>
COc1cc(/C=C2\[C@H]3c4c(c(OC)c(C)c(OC)c4OC)C[C@@H](C(=O)N2Cc2ccccc2)N3C(=O)OCC(C)C)c(OC)c(C)c1OC

>  <TGI>
> 100 µM

$$$$
>  <compound>
Cc1ccc([N+](=O)[O-])c2c(NCCNC(=O)Cn3ccnc3[N+](=O)[O-])ccnc12

>  <TGI>
> 100 µM

$$$$
>  <compound>
C1=Cc2ccccc2Nc2ccccc21

>  <TGI>
> 100 µM

$$$$
>  <compound>
COc1cc(-c2nc(Nc3nc4ccccc4[nH]3)nc(N)c2C#N)cc(OC)c1OC

>  <TGI>
72.4 µM

$$$$
>  <compound>
C=CCc1cc(-c2cc(CC=C)c(O)c(CN(CCCl)CCCl)c2)cc(CN(CCCl)CCCl)c1O

>  <TGI>
24.8 µM

$$$$
>  <compound>
O=S(=O)(/C=C/c1ccc(Cl)cc1Cl)Cc1ccccc1CS(=O)(=O)/C=C/c1ccc(Cl)cc1Cl

>  <TGI>
> 100 µM

$$$$
>  <compound>
CCCN(CCC)C(=O)C1=Cc2ccc(-c3ccc(C(=O)N4CCCC4)cc3)cc2N=C(N)C1

>  <TGI>
24.6 µM

$$$$
>  <compound>
CCN(CC)CC(=O)Nc1c(C(N)=O)nnn1Cc1cc(Cl)c(C(=O)c2ccc(Cl)cc2)c(Cl)c1

>  <TGI>
41.1 µM

$$$$
>  <compound>
COc1ccc2c(c1)c(=O)c1ccccc1n2/C=C/C(=O)O

>  <TGI>
> 100 µM

$$$$
>  <compound>
COc1ccc(C(=O)C(c2ccc(OC)cc2)C2(O)C(=O)Nc3ccccc32)cc1 (centres undefined)

>  <TGI>
> 100 µM

$$$$
>  <compound>
C[C@H]1O[C@@H](c2c(O)ccc3ccccc23)C[C@@H](N(C)C)C1O (some centres undefined)

>  <TGI>
> 100 µM

$$$$
>  <compound>
Cc1ccccc1C1CC(=O)CC(c2ccccc2C)C12C(=O)NC(=O)NC2=O (centres undefined)

>  <TGI>
> 100 µM

$$$$
>  <compound>
OC(c1nc2ccccc2s1)(C(F)(F)F)C(F)(F)F

>  <TGI>
> 100 µM

$$$$
>  <compound>
COc1ccc(-c2[nH]c3ccccc3c2C=C(C#N)C#N)cc1

>  <TGI>
> 100 µM

$$$$

* * *

- Tested on: SNB-19 CNS
- assay_method_text: NCI tumour cell line growth inhibition, 48 h
recorded_metric: TGI

>  <compound>
COc1cc2cc(C(=O)N3CC(CCl)c4c3cc([N+](=O)[O-])c3ccccc43)[nH]c2c(OC)c1OC (centres undefined)

>  <observed_value>
> 100 µM

$$$$
>  <compound>
O=C(O)/C=C/n1c2ccccc2c(=O)c2ccccc21

>  <observed_value>
> 100 µM

$$$$
>  <compound>
CCOP(C)(=O)C(Cc1c[nH]c2ccccc12)C(=O)O (centres undefined)

>  <observed_value>
> 100 µM

$$$$
>  <compound>
O=C(/C=C(\O)c1ccc(Cl)cc1)C(=O)N=Nc1c(O)[nH]c2ccc(Br)cc12

>  <observed_value>
> 100 µM

$$$$
>  <compound>
COc1ccc(C(=O)C(c2ccc(OC)cc2)C2(O)C(=O)Nc3ccccc32)cc1 (centres undefined)

>  <observed_value>
> 100 µM

$$$$
>  <compound>
COC(=O)/C=C1/CCC2[C@@H](C(=O)CC3[C@]2(C)CCC[C@@]3(C)C(=O)OC)C1C (some centres undefined)

>  <observed_value>
33.4 µM

$$$$
>  <compound>
O=C1C=CC2(O[C@H](c3ccccc3)[C@@H](c3ccccc3)O2)C(SC(=O)c2ccccc2)C1 (some centres undefined)

>  <observed_value>
5.63 µM

$$$$
>  <compound>
C/C=C/c1c(O)c(=O)c2c(OC)cc(OC)c3c4c(OC)cc(OC)c5c(=O)c(O)c(/C=C/C)c(c1c23)c54

>  <observed_value>
17.2 µM

$$$$
>  <compound>
Cn1c2ccccc2c(=S)c2ccccc21

>  <observed_value>
> 100 µM

$$$$

* * *

- Tested on: KM12 colon
- assay_method_text: NCI tumour cell line growth inhibition, 48 h
recorded_metric: log10(TGI) (log10 of the value in µM)

>  <compound>
COc1cc2nc(-c3cnc(N(C)C)nc3)nc(NC3CCN(Cc4ccccc4)CC3)c2cc1OC

>  <log10(TGI)>
0.55

$$$$
>  <compound>
CC1=CC(=NC(=O)CBr)C=C/C1=N\S(=O)(=O)c1ccccc1

>  <log10(TGI)>
1.49

$$$$
>  <compound>
Cc1cc(N2CCCCC2)nc(N(CCCNc2ccnc3cc(Cl)ccc23)Cc2ccco2)n1

>  <log10(TGI)>
1.05

$$$$
>  <compound>
CCN(CC)CCCC(C)Nc1cnc(C(=O)Nc2ccc(Cl)c3cccnc23)cn1 (configuration not stated)

>  <log10(TGI)>
1.12

$$$$
>  <compound>
CC(=O)N1N=C2/C(=C/c3ccccc3)CC(C)CC2C1c1ccccc1 (configuration not stated)

>  <log10(TGI)>
1.53

$$$$
>  <compound>
Cn1cncc1[C@@](N)(c1ccc(Cl)cc1)c1ccc2c(c1)c(-c1cccc(Cl)c1)cc(=O)n2C

>  <log10(TGI)>
0.85

$$$$
>  <compound>
COC(=O)/C=C1/CCC2[C@@H](C(=O)CC3[C@]2(C)CCC[C@@]3(C)C(=O)OC)C1C (some centres not stated)

>  <log10(TGI)>
1.43

$$$$
>  <compound>
COc1ccc2nc(-c3cc(-c4cc(OC)c(OC)c(OC)c4)n[nH]3)[nH]c2c1

>  <log10(TGI)>
0.57

$$$$
>  <compound>
CC(C)/C(Cl)=N\OC(=O)Nc1cccc(F)c1

>  <log10(TGI)>
1.22

$$$$
>  <compound>
CN(C)CCNC(=O)c1cc2ccccc2c2nc3ccccc3nc12

>  <log10(TGI)>
0.46

$$$$
>  <compound>
C/C=C/c1c(O)c(=O)c2c(OC)cc(OC)c3c4c(OC)cc(OC)c5c(=O)c(O)c(/C=C/C)c(c1c23)c54

>  <log10(TGI)>
1.50

$$$$
>  <compound>
CC(=N/NC(=S)N1CCCCC1)/C(=N\NC(=S)N1CCCCC1)c1ccccc1

>  <log10(TGI)>
0.60

$$$$
>  <compound>
COc1cc(O)cc(/C=C/c2ccc(O)cc2)c1

>  <log10(TGI)>
1.97

$$$$
>  <compound>
CCN(CC)CC(=O)Nc1c(C(N)=O)nnn1Cc1cc(Cl)c(C(=O)c2ccc(Cl)cc2)c(Cl)c1

>  <log10(TGI)>
1.55

$$$$
>  <compound>
C=C1C(=O)O[C@H]2[C@H]1CC/C(COC(=O)CCCCC(=O)OC/C1=C/CC[C@@]3(C)O[C@H]3[C@H]3OC(=O)C(=C)[C@@H]3CC1)=C\CC[C@@]1(C)O[C@@H]21

>  <log10(TGI)>
1.09

$$$$
>  <compound>
COC1=C2CC(C)CC(OC)[C@@H](OC(=O)CCN)[C@H](C)/C=C(\C)C(OC(N)=O)C(OC)/C=C\C=C(/C)C(=O)NC(=CC1=O)C2=O (some centres not stated)

>  <log10(TGI)>
0.92

$$$$
>  <compound>
Cn1cc(-c2nc(-c3c[nH]c4ncccc34)cs2)c2cc(F)ccc21

>  <log10(TGI)>
0.71

$$$$

* * *

- System: LOX IMVI melanoma
- assay_method_text: NCI tumour cell line growth inhibition, 48 h
# maps each entry to its TGI
recorded_metric: TGI

>  <molecule>
N#C/C(=C\c1ccc(-c2ccc(Cl)cc2)o1)C(=O)Nc1ncc(Cc2ccc(Cl)cc2)s1

>  <observed_value>
7.55 µM

$$$$
>  <molecule>
CCN(CC)CCCC(C)Nc1cnc(C(=O)Nc2ccc(Cl)c3cccnc23)cn1 (stereo not drawn)

>  <observed_value>
3.3 µM

$$$$
>  <molecule>
COc1cc(C2=NN(C)C(c3ccc([N+](=O)[O-])o3)C2)cc(OC)c1OC (stereo not drawn)

>  <observed_value>
> 100 µM

$$$$
>  <molecule>
Cn1nccc1Nc1nccc(-c2cc3c(s2)C(C)(C)N(CCN2CCOCC2)C3=O)n1

>  <observed_value>
> 100 µM

$$$$
>  <molecule>
COc1c(C)c(C/C=C(\C)CCCCO[Si](C(C)C)(C(C)C)C(C)C)c(OC)c2ccccc12

>  <observed_value>
> 100 µM

$$$$
>  <molecule>
COC(=O)Nc1nc2ccc(Oc3ccc(NC(=O)Nc4cccc(C(=O)O)c4)cc3)cc2[nH]1

>  <observed_value>
> 25 µM

$$$$
>  <molecule>
C=C1C(=O)O[C@@H]2[C@H]1C[C@@H](O)[C@H](C)[C@@](O)(C(=O)/C=C/C)[C@H]2OC(=O)C(C)CC (stereo partly drawn)

>  <observed_value>
12.3 µM

$$$$
>  <molecule>
CCCN(CCC)C(=O)C1=Cc2ccc(-c3ccc(C(=O)N4CCCC4)cc3)cc2N=C(N)C1

>  <observed_value>
24.2 µM

$$$$
>  <molecule>
CCC(=O)Nc1ccc(N=Cc2cccc(Oc3ccccc3)c2)cc1

>  <observed_value>
> 100 µM

$$$$
>  <molecule>
O=C1/C(=C\c2ccc(Cl)cc2Cl)Sc2scc(-c3cccc([N+](=O)[O-])c3)[n+]21

>  <observed_value>
3.47 µM

$$$$
>  <molecule>
Cc1ccc(NC(=O)CCC(CC(=O)C(C)(C)C)=NNC(=O)C(=O)NN)cc1C

>  <observed_value>
> 100 µM

$$$$
>  <molecule>
Nc1nc(N)c(N=O)c(Nc2ccc(O)cc2)n1

>  <observed_value>
> 100 µM

$$$$
>  <molecule>
CC(C)/C(Cl)=N\OC(=O)Nc1cccc(F)c1

>  <observed_value>
5.31 µM

$$$$
>  <molecule>
C/C=C(\C)C(=O)N[C@H]1CC[C@]2(C)C3CC[C@@]4(C)C(CC[C@@H]4C(C)N(C)C)C3CCC2[C@H]1OC(C)=O (stereo partly drawn)

>  <observed_value>
2.78 µM

$$$$
>  <molecule>
COc1ccc(-c2[nH]c3ccccc3c2C=C(C#N)C#N)cc1

>  <observed_value>
> 100 µM

$$$$
>  <molecule>
CC[C@@H](C(=O)[C@@H](C)[C@@H](O)[C@H](C)[C@@H]1O[C@@H]([C@@H](CC)C(=O)O)CC[C@@H]1C)C1O[C@]2(C=CC(=O)[C@]3(CC[C@@](C)([C@H]4CC[C@](O)(CC)[C@H](C)O4)O3)O2)[C@H](C)C[C@@H]1C (stereo partly drawn)

>  <observed_value>
13.8 µM

$$$$
>  <molecule>
Cc1nn(-c2nc3ccccc3s2)c(C)c1Oc1ccccc1O

>  <observed_value>
16.9 µM

$$$$
>  <molecule>
OCC(CN1CCCCC1)(CN1CCCCC1)CN1CCCCC1

>  <observed_value>
> 100 µM

$$$$
